Target: human ENT1 (Homo sapiens, UniProt Q99808)
Sequence (Q99808 whole entry): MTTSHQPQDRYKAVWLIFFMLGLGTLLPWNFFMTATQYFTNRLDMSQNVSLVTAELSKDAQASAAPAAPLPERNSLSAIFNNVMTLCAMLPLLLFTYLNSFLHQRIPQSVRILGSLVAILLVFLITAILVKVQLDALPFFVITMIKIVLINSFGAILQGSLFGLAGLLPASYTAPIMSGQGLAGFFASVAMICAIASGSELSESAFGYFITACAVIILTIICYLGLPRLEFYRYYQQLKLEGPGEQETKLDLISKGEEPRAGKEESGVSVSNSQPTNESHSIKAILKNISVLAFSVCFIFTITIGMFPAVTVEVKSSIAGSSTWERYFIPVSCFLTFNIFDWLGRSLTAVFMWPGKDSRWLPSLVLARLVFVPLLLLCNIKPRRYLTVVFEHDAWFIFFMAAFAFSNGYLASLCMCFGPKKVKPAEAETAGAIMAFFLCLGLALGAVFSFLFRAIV
Assay: ENT1 binding assay (competition with Sahenta-DY647 on JAR cells)
Parameters: JAR cells expressing ENT1 were bought from ATCC; host or cells: JAR cells
Details: binned IC50
Protocol: Purpose. […] By measuring the fluorescence at the end of the assay we could assess the binding potency of the compounds of the present invention. JAR cells were resuspended in the described buffer. Compounds of the present invention and Sahenta-DY647 were diluted 200× in the described buffer. The total volume of the reaction was 100 μL (50 μL of cells, 25 μL of the compounds of the present invention and 25 μL of Sahenta-DY647) in a 96 well plate, U-bottom (Greiner®, #650-180). […]
pIC50: −log10 of the molar value.
Parameter: pIC50. Scope: all listed entries.

For orientation, consider the following solved cases.
smilesCode	pIC50
COCCN(CCOC)c1nc(N2CCC(OC)CC2)c2nc(N(CCOC)CCOC)nc(NCc3cccc(-c4ncco4)c3)c2n1	6.30 to 7.00
COCCN(CCOC)c1nc(N2CCC(OC)CC2)c2nc(N(CCOC)CCOC)nc(OCc3cccc(-c4noc(C)n4)c3)c2n1	6.30 to 7.00
COCCN(CCO)c1nc(N2CCN(C)C(=O)C2)c2nc(N(CCO)CCOC)nc(N3CCC(OC)CC3)c2n1	6.30 to 7.00
COCCN(CCOC)c1nc(N2CCN(C)C(=O)C2)c2nc(N3CCn4ncnc4C3)nc(N3CCC(OC)CC3)c2n1	6.00 to 6.30
CCN(CCN1CCCC1)c1nc(N2CCN(C)C(=O)C2)c2nc(N(CCOC)Cc3cc(OC)c(OC)c(OC)c3)nc(N3CCC(OC)CC3)c2n1	6.30 to 7.00
CCOCCCNc1nc(N(CCOC)CCOC)nc2c(N3CCC(OC)CC3)nc(N(CCOC)CCOC)nc12	6.00 to 6.30
COCCN(CCOC)c1nc(N2CCCC3(COC3)C2)c2nc(N(CCOC)CCOC)nc(N3CCC(OC)CC3)c2n1	> 7.00
COCCN(CCOC)c1nc(N2CCN(c3ncn(C)n3)CC2)c2nc(N(CCOC)CCOC)nc(N(C)Cc3ccc(F)c(F)c3)c2n1	6.30 to 7.00
COCCN(CCOC)c1nc(N2CC(O)(C(F)(F)F)C2)c2nc(N(CCOC)CCOC)nc(N3CCN(C)C(=O)C3)c2n1	6.30 to 7.00
COCCN(CCOC)c1nc(N2CCC(OC)CC2)c2nc(N(CCOC)CCOC)nc(NCCC(C)(C)O)c2n1	6.00 to 6.30

Query block: Would you kindly share the measured pIC50 for `COCCN(CCOC)c1nc(N2CCC(OC)CC2)c2nc(N(CCOC)CCOC)nc(NCCCNS(C)(=O)=O)c2n1` ?
Result block: 6.00 to 6.30

Query block: Would you kindly share the measured pIC50 for `COCCN(CCOC)c1nc(N2CCc3nocc3C2)c2nc(N(CCOC)CCOC)nc(N3CCN(C)C(=O)C3)c2n1` ?
Result block: > 7.00

Query block: Would you kindly share the measured pIC50 for `COCCN(CCOC)c1nc(N2CCC(OC)CC2)c2nc(N(CCOC)CCOC)nc(NCc3cccnc3)c2n1` ?
Result block: 6.00 to 6.30

Query block: Would you kindly share the measured pIC50 for `CCN(CC)c1nc(N(CCOC)CCOC)nc2c(N3CCC(OC)CC3)nc(N(CCOC)CCOC)nc12` ?
Result block: > 7.00

Query block: Would you kindly share the measured pIC50 for `COCCN(CCOC)c1nc(N2CCC(OC)CC2)c2nc(N(CCOC)CCOC)nc(NCc3ccc(OC)c(OC)c3)c2n1` ?
Result block: > 7.00

Query block: Would you kindly share the measured pIC50 for `COCCN(CCOC)c1nc(N2CCN(c3ncn(C)n3)CC2)c2nc(N(CCOC)CCOC)nc(N(C)Cc3cccc(S(N)(=O)=O)c3)c2n1` ?
Result block: 6.30 to 7.00

Query block: Would you kindly share the measured pIC50 for `CCCN(C)c1nc(N(CCOC)CCOC)nc2c(N3CCC(OC)CC3)nc(N(CCOC)CCOC)nc12` ?
Result block: > 7.00

Query block: Would you kindly share the measured pIC50 for `COCCN(CCOC)c1nc(N2CCC(OC)CC2)c2nc(N(CCO)CCCS(C)(=O)=O)nc(N3CCN(C)C(=O)C3)c2n1` ?
Result block: 6.30 to 7.00

Query block: Would you kindly share the measured pIC50 for `COCCN(CCOC)c1nc(N2CCC(OC)CC2)c2nc(N(CCOC)CCOC)nc(N3CCC(C#N)CC3)c2n1` ?
Result block: 6.30 to 7.00
